Test system: IFNγ-induced NO production in RAW cells
ASSAY PROCEDURE: iNOS assay: inhibition of NO production in RAW cells stimulated by interferon-γ
Format: cell-based
STATED CONDITIONS: Suppression of IFNγ-induced NO production; 24 h; Griess reaction; average of two experiments; read-out: RAW (10 ng/ml IFNγ) IC50
QUANTITY NAME: log10(IC50) (log10 of the value in nM)
# values: log10(IC50), units nM

>  <MOLECULE>
C=CC1(C)C=CC(=O)C(C#N)=C1 (stereo not drawn)

>  <log10(IC50)>
2.48

$$$$
>  <MOLECULE>
CC1(C)C=CC(=O)C(C#N)=C1 [MCE-2, reference compound]

>  <log10(IC50)>
2.58

$$$$
>  <MOLECULE>
CC1(C)CC[C@]2(C(=O)O)CC[C@]3(C)[C@H](C(=O)C=C4[C@@]5(C)C=C(C#N)C(=O)C(C)(C)[C@@H]5CC[C@]43C)[C@@H]2C1 [CDDO, reference compound]

>  <log10(IC50)>
1.30

$$$$

Here are 2 molecules. What values of log10(IC50) were reported for them?
1. C#CC1(C)C=CC(=O)C(C#N)=C1 (stereo not drawn)
2. C#CC12C=C(C#N)C(=O)C=C1[C@@]1(C)C=C(C#N)C(=O)C(C)(C)[C@@H]1CC2 (stereo partly drawn)

1: 0.90; 2: 0.00
